- Experimental target: ENPP3 (Homo sapiens, UniProt O14638)
- Sequence (O14638 1-875): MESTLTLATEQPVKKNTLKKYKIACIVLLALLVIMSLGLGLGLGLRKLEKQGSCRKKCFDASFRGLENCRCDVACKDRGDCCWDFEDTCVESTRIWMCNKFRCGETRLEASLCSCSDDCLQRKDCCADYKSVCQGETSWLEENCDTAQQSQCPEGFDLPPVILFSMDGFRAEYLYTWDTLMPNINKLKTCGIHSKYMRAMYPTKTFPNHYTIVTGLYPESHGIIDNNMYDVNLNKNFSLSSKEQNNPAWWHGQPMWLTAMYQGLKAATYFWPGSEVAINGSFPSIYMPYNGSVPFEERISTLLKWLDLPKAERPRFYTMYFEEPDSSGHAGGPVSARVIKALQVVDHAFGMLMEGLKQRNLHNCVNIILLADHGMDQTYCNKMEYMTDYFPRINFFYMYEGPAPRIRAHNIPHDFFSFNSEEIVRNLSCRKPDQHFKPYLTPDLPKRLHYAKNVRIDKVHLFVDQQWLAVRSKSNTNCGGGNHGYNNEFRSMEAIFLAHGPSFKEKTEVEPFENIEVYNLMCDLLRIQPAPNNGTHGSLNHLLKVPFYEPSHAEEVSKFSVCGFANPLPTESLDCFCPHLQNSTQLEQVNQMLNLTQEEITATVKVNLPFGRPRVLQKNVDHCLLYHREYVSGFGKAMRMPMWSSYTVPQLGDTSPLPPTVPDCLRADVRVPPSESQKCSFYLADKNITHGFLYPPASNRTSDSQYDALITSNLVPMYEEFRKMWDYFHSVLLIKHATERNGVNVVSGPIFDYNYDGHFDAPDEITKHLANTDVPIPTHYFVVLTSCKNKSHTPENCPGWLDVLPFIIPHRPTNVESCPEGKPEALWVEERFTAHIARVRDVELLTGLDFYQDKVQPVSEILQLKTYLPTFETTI
- Protocol description: ENPP3 Km ATP assay
- Assay type: biochemical
- Experimental conditions: ATP at Km
Listed here: items and their measured IC50.
Measure: IC50

1) Cn1ncc2c(NCc3ccc(S(N)(=O)=O)cc3)nc(Cl)nc21: 0.1 to 1 µM
2) CNc1nc(NCc2ccc(S(N)(=O)=O)cc2)c2c(-c3ccccc3)csc2n1: < 0.1 µM
3) Cc1csc2c(N3CCC(NCc4ccncc4)CC3)ncnc12: > 20 µM
4) NS(=O)(=O)N1CCC(CNc2nc(-c3ccccn3)nc3scc(-c4ccccc4)c23)CC1: 1 to 20 µM
5) COCCNc1nc(NCc2ccc(S(N)(=O)=O)cc2)c2c(-c3ccccc3)csc2n1: < 0.1 µM
6) CCNc1nc(NCc2ccc(S(N)(=O)=O)cc2F)c2cnn(C)c2n1: 0.1 to 1 µM
7) Cc1csc2c(N3CCC(NC(=O)CCc4ccnc(Br)c4)CC3)ncnc12: > 20 µM
8) Cc1cnccc1CCC(=O)NC1CCN(c2ncnc3c(C)csc23)CC1: > 20 µM
9) NS(=O)(=O)c1ccc(CNc2nc(NCc3ccccc3)nc3scc(-c4ccccc4)c23)cc1: 0.1 to 1 µM
10) CCN(C)c1nc(NCc2ccc(S(N)(=O)=O)cc2)c2cnn(C)c2n1: 0.1 to 1 µM
11) Cn1ncc2c(NCc3ccc(S(N)(=O)=O)cc3)nc(Nc3ccccc3)nc21: 0.1 to 1 µM
12) COc1cc(CCC(=O)NC2CCN(c3ncnc4c(C)csc34)CC2)ccn1: > 20 µM
13) Cc1cccc(CCCNC2CCN(c3ncnc4c(C)csc34)CC2)c1: 1 to 20 µM
14) Cn1ncc2c(NCc3ccc(S(N)(=O)=O)cn3)ccnc21: 0.1 to 1 µM
15) Cc1csc2c(N3CCC(NCCCc4ccccn4)CC3)ncnc12: > 20 µM
16) CN(C)c1nc(NCc2ccc(S(N)(=O)=O)cc2)c2c(-c3ccccc3)csc2n1: 0.1 to 1 µM
17) CN(Cc1ccccc1)c1nc(NCc2ccc(S(N)(=O)=O)cc2)c2cnn(C)c2n1: 0.1 to 1 µM
18) Cc1csc2c(N3CCC(NCCCc4ccncc4)CC3)nc(N3CCN(C)CC3)nc12: > 20 µM
19) Cc1csc2c(N3CCC(NCCCc4ccc(C#N)cc4)CC3)ncnc12: > 20 µM
20) Cn1ncc2c(NCc3ccc(S(N)(=O)=O)cc3F)nc(Cl)nc21: 0.1 to 1 µM
21) COc1cc(CNc2ncnc3c2cnn3C)ccc1S(N)(=O)=O: > 20 µM
22) COc1nc(NCc2ccc(S(N)(=O)=O)cc2)c2c(Br)nn(C)c2n1: < 0.1 µM
23) Cc1cccc(CCC(=O)NC2CCN(c3ncnc4c(C)csc34)CC2)c1: > 20 µM
24) CN1CCN(c2nc(NCc3ccc(S(N)(=O)=O)cc3)c3c(-c4ccccc4)csc3n2)CC1: < 0.1 µM
25) Cc1nc(N2CCC(NCCCc3ccncc3)CC2)c2cnn(C)c2n1: > 20 µM
26) COc1ccc(CCC(=O)NC2CCN(c3ncnc4c(C)csc34)CC2)cc1: > 20 µM
27) Cn1ncc2c(NCc3ccc(S(N)(=O)=O)cc3)nc(-c3ccccn3)nc21: 1 to 20 µM
28) Cc1csc2c(N3CCC(NCCc4ccc(F)cc4)CC3)ncnc12: > 20 µM
29) CN(C)CCCNc1nc(NCc2ccc(S(N)(=O)=O)cc2)c2c(-c3ccccc3)csc2n1: < 0.1 µM
30) Fc1ccc(CNc2nc(-c3ccccn3)nc3scc(-c4ccccc4)c23)cc1: > 20 µM
31) c1ccc(CNc2nc(-c3ccccn3)nc3scc(-c4ccccc4)c23)cc1: > 20 µM
32) NS(=O)(=O)c1ccc(CNc2nc(-c3ccccn3)nc3scc(-c4ccccc4)c23)cc1Cl: 0.1 to 1 µM
33) Cc1nc(N2CCC(NCCCc3ccc(F)cc3)CC2)c2cnn(C)c2n1: > 20 µM
34) Cc1csc2c(N3CCC(NCCCc4ccncc4)CC3)nc(-c3ccccc3)nc12: > 20 µM
35) Cn1ncc2c(N3CCC(NCCCc4ccncc4)CC3)nc(-c3ccccn3)nc21: > 20 µM
